Taken from PubChem BioAssay (NCI).

- Test system: MOLT-4 leukemia
- procedure_details: NCI tumour cell line growth inhibition, 48 h
Quick list: TGI per entry.
outcome_measure: TGI

INSERT INTO results (compound, tested_system, meas_value) VALUES
  ('COc1ccc2c(c1)[n+](=O)c(C(=O)C/C(=N/NC(=O)c1ccccc1O)C(=O)Nc1ccc(Cl)c(C(F)(F)F)c1)c(C)n2[O-]', 'MOLT-4 leukemia', '> 100 µM'),
  ('C/C(=N\OCC(O)CNC(C)C)c1ccc2c(c1)NC(=O)CS2 (configuration not stated)', 'MOLT-4 leukemia', '> 100 µM'),
  ('C=Cc1c(C)c(O)cc2c1-c1ccc(O)c(C)c1CC2', 'MOLT-4 leukemia', '30.6 µM'),
  ('CC1CCC2(OC1)OC1CC3C4CCC5CC(O)CCC5(C)C4CC(=O)OC3(C)C1C2C (configuration not stated)', 'MOLT-4 leukemia', '> 100 µM'),
  ('Cn1c(=O)nc2n(-c3cccc(Cl)c3)c3ccccc3nc-2c1=O', 'MOLT-4 leukemia', '42 µM'),
  ('COc1ccc(C2Oc3ccc(Cl)cc3C=C2[N+](=O)[O-])cc1OC (configuration not stated)', 'MOLT-4 leukemia', '0.733 µM'),
  ('COc1cc2c(cc1O)CC[C@@H]1[C@@H]2CC[C@]2(C)[C@@H](OCCCN(C)C)CC[C@@H]12', 'MOLT-4 leukemia', '0.555 µM'),
  ('CC1(C)[C@@H]2CC[C@@]1(C)C1(SS1=O)C21Cc2ccccc2C1 (some centres not stated)', 'MOLT-4 leukemia', '58.4 µM'),
  ('COC(=O)C(CCCCCCCC(C(=O)OC)c1nc2n(c1O)C(=N)N=N2)c1nc2n(c1O)C(=N)N=N2 (configuration not stated)', 'MOLT-4 leukemia', '> 100 µM'),
  ('COc1ccc(Cc2c(-c3ccc(C)cc3)n[nH]c(=O)c2C2C(=O)N(c3ccccc3)N=C2c2ccccc2)cc1 (configuration not stated)', 'MOLT-4 leukemia', '> 67.7 µM'),
  ('Cc1ccc(Nc2nc3ccccc3c(=O)n2N)cc1', 'MOLT-4 leukemia', '> 100 µM'),
  ('O=C(Nc1c(O)[nH]c(=S)[nH]c1=O)c1ccco1', 'MOLT-4 leukemia', '> 100 µM'),
  ('Clc1ccccc1CN1COc2c(cc(Cl)c3cccnc23)C1', 'MOLT-4 leukemia', '1.12 µM'),
  ('Cc1nc2c(o1)C(=Nc1ccccc1)c1ccccc1C2=Nc1ccccc1', 'MOLT-4 leukemia', '> 100 µM'),
  ('Cc1nc2ccc(Cl)cc2c(Cl)c1CCCl', 'MOLT-4 leukemia', '> 100 µM'),
  ('COC(=O)/C=C/CC(=O)NS(C)(=O)=O', 'MOLT-4 leukemia', '> 10 µM'),
  ('Nc1ncnc2c1ccn2COC(CO)CO', 'MOLT-4 leukemia', '> 100 µM'),
  ('CCCC(=O)OC[n+]1ccc2c(C)c3[nH]c4ccc(OC)cc4c3c(C)c2c1', 'MOLT-4 leukemia', '0.322 µM'),
  ('C[C@@H](CO)C1=C(O)c2ccc3c(c2C(=O)C1=O)CCCC3(C)C', 'MOLT-4 leukemia', '> 100 µM'),
  ('Cc1ccc(C(=O)CC(O)(C(F)(F)F)C(F)(F)F)cc1[N+](=O)[O-]', 'MOLT-4 leukemia', '68.5 µM'),
  ('OC1CCCCCCCCCCC1SCCCCl (configuration not stated)', 'MOLT-4 leukemia', '> 100 µM'),
  ('CCC1=C(CC)C1(C#N)[N+](=O)[O-]', 'MOLT-4 leukemia', '> 100 µM');
